- Tested on: Serratia marcescens
- testDescription: In vitro antibacterial activity against SG 621 strain of Serratia marcescens
- Format: functional
quantityKind: MIC (µg/mL)

compound | quantityKind | dataValue
CC1(C)S[C@@H]2[C@H](NC(=O)[C@H](NC(=O)N3CCNC3=O)c3ccccc3)C(=O)N2[C@H]1C(=O)O | MIC | 50
COC(=O)Oc1cccc2c(=O)n(CC(=O)Nc3cc(NC(=O)Cn4c(=O)oc5c(OC(=O)OC)cccc5c4=O)cc(C(=O)NC(C(=O)NC4C(=O)N5C4SC(C)(C)C5C(=O)O)c4ccccc4)c3)c(=O)oc12 (stereo unspecified) | MIC | 12.5
CC(=O)Oc1cccc(C(=O)NCCN(CC(=O)NC(C(=O)NC2C(=O)N3C2SC(C)(C)C3C(=O)O)c2ccccc2)C(=O)c2cccc(OC(C)=O)c2OC(C)=O)c1OC(C)=O (stereo unspecified) | MIC | 0.78
CC(=O)Oc1ccc(C(=O)NCCCCN(CC(=O)NC(C(=O)NC2C(=O)N3C2SC(C)(C)C3C(=O)O)c2ccccc2)C(=O)c2ccc(OC(C)=O)c(OC(C)=O)c2)cc1OC(C)=O (stereo unspecified) | MIC | 3.12
CC(=O)Oc1cccc(C(=O)NCCCCN(Cc2ccc(OCC(=O)NC(C(=O)NC3C(=O)N4C3SC(C)(C)C4C(=O)O)c3ccccc3)cc2)C(=O)c2cccc(OC(C)=O)c2OC(C)=O)c1OC(C)=O (stereo unspecified) | MIC | 6.25

I. COC(=O)Oc1cc(Cl)cc(C(=O)N(C)CCCN(CC(=O)NC(C(=O)NC2C(=O)N3C2SC(C)(C)C3C(=O)O)c2ccccc2)C(=O)c2cc(Cl)cc(OC(=O)OC)c2OC(=O)OC)c1OC(=O)OC (stereo unspecified)
II. CC(=O)Oc1cccc(C(=O)NCCCCN(Cc2ccccc2C(=O)NC(C(=O)NC2C(=O)N3C2SC(C)(C)C3C(=O)O)c2ccccc2)C(=O)c2cccc(OC(C)=O)c2OC(C)=O)c1OC(C)=O (stereo unspecified)
Hi there, can you help? I need to know whether I or II has lower measured MIC. Returns: label corresponding to the selected item. I
